Field: EC50. Provide a value for each of the molecules that follow.
target: GLP-1R (Homo sapiens); assay: GLP-1R Activation - cAMP Assay 2 (cAMP increase in CHO cells stably expressing GLP-1R, pre-spotted agonists); type: cell-based; details: assay buffer or 100% Human Plasma (not given), 30 minutes at 37° C.
Give bare numbers, in nM.

COCCn1c(C[C@H]2CC[C@@H](c3cccc(OCc4ccc(C#N)cc4F)n3)CC2)nc2c(-c3ccn(C)n3)cc(C(=O)O)cc21 [Example 31] : 134

Each molecule below has a reported value. Please supply its EC50.
1. CC(C)(C)OC(=O)Nc1cc2nc(CN3CCC(c4cccc(OCc5ccc(C#N)cc5F)n4)CC3)n(C[C@@H]3CCO3)c2cc1C(=O)O [Example 24]
2. COCCn1c(C2CC23CCN(c2cccc(OCc4ccc(C#N)cc4F)n2)CC3)nc2c(F)cc(C(=O)O)cc21 (stereo not drawn) [Example 7]
3. COCCn1c(C[C@H]2CC[C@H](c3cccc(OCc4ccc(C#N)cc4F)n3)CC2)nc2c(-c3ccn(C)n3)cc(C(=O)O)cc21 [Example 32]
4. Cn1ccc(-c2cc(C(=O)O)cc3c2nc(CN2CCC(c4cccc(OCc5ccc(C#N)cc5F)n4)CC2)n3C[C@@H]2CCO2)n1 [Example 18]

Key:
1: 0.51; 2: 10.3; 3: 10.6; 4: 0.98

Exercise: Consider the molecule Cn1ccc(-c2cc(C(=O)O)cc3c2nc(CN2CCC(c4ccnc(OCc5ccc(C#N)cc5F)n4)CC2)n3C[C@@H]2CCO2)n1 [Example 4] . State its measured EC50.
Key: 1.2

###

target: GLP-1R (Homo sapiens, UniProt P43220); assay: GLP-1R Activation - cAMP Assay 2 (cAMP increase in CHO cells stably expressing GLP-1R, pre-spotted agonists); format: cell-based; conditions: assay buffer or 100% Human Plasma (not given), 30 minutes at 37° C.
Sequence (P43220 24-463): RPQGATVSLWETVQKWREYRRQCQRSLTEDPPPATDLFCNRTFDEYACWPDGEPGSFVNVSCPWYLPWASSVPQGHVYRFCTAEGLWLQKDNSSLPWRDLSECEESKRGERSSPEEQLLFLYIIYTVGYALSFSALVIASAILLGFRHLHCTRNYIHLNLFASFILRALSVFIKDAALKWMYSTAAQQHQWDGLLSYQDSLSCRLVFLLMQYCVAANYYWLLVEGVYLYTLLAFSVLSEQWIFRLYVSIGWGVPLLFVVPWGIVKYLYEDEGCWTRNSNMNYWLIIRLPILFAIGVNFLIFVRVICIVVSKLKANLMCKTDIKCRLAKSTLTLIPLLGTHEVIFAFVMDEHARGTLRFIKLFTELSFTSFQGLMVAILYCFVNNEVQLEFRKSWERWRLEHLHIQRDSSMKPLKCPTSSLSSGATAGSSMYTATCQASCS
pEC50: −log10 of the molar value.
Lab note: anything with pEC50 at or over 8 counts as TRUE; the rest go in FALSE.

Worked cases, answers included:
N#Cc1ccc(COc2cccc(C3CCN(Cc4nc5c(F)cc(C(=O)O)cc5n4C[C@@H]4CCO4)CC3)n2)c(F)c1 [Example 21] : TRUE
N#Cc1ccc(COc2nc(C3CCN(Cc4nc5c(F)cc(C(=O)O)cc5n4C[C@@H]4CCO4)CC3)ccc2F)c(F)c1 [Example 20] : TRUE
COCCn1c(CN2CCC(c3cccc(OCc4ccc(C#N)cc4F)n3)CC2)nc2c(Cl)cc(C(=O)O)cc21 [Example 9] : TRUE
CC(C)(O)C#Cc1cc2nc(CN3CCC(c4cccc(OCc5ccc(C#N)cc5F)n4)CC3)n(C[C@@H]3CCO3)c2cc1C(=O)O [Example 16] : FALSE

# evaluate next
Exercise: Is pEC50 at least 8? Consider Cn1ccc(-c2cc3nc(CN4CCC(c5cccc(OCc6ccc(C#N)cc6F)n5)CC4)n(C[C@@H]4CCO4)c3cc2C(=O)O)n1 [Example 30]
Key: FALSE

###

target: GLP-1R (Homo sapiens); assay: GLP-1R Activation - cAMP Assay 1 (cAMP increase in CHO cells stably expressing GLP-1R); type: cell-based; settings: 10 point dose response, 30 minutes incubation at 37° C., cAMP Gs Dynamic Kit
Field: EC50. Provide a value for each of the molecules that follow.
Numbers only, in nM.

COCCn1c(CN2CCC(c3cccc(OCc4ccc(C#N)cc4F)n3)CC2)nc2c(F)cc(C(=O)O)cc21 : 1.04
COCCn1c(CN2CCC(c3cccc(OCc4ccc(C#N)cc4F)n3)CC2)nc2c(C3CC3)cc(C(=O)O)cc21 : 53.9
COCCn1c(CC2CCN(c3cccc(OCc4ccc(C#N)cc4F)n3)CC2)nc2c(F)cc(C(=O)O)cc21 : 5.3

Exercise: Consider the molecule COCCn1c(CN2CCC(c3cccc(OCc4ccc(C#N)cc4F)n3)CC2)nc2c(-c3cnn(C)c3)cc(C(=O)O)cc21 . State its measured EC50.
Key: 104

###

biological target: UniProt:P43220; assay: GLP-1R Activation - cAMP Assay 2 (cAMP increase in CHO cells stably expressing GLP-1R, pre-spotted agonists); format: cell-based; conditions: assay buffer or 100% Human Plasma (not given), 30 minutes at 37° C.
Attribute Measured: EC50 (nM)
Numbers only, in nM.

N#Cc1ccc(COc2cccc(N3CCN(Cc4nc5c(-c6ccccn6)cc(C(=O)O)cc5n4C[C@@H]4CCO4)CC3)n2)c(F)c1 : 2.6
N#Cc1ccc(COc2cccc(N3CCN(Cc4nc5c(F)cc(C(=O)O)cc5n4C[C@@H]4CCO4)CC3)n2)c(F)c1 : 0.031
N#Cc1ccc(COc2nc(N3CCN(Cc4nc5c(F)cc(C(=O)O)cc5n4C[C@@H]4CCO4)CC3)ccc2F)c(F)c1 : 0.22
COCCn1c(CN2CCC(c3cccc(OCc4ccc(C#N)cc4F)n3)CC2)nc2c(F)c(F)c(C(=O)O)cc21 : 11.3
COCCn1c(CN2CCC(c3cccc(OCc4ccc(C(N)=O)cc4F)n3)CC2)nc2c(F)c(Nc3ccccc3)c(C(=O)O)cc21 : 175
CC(C)(O)C#Cc1cc(C(=O)O)cc2c1nc(CN1CCN(c3cccc(OCc4ccc(C#N)cc4F)n3)CC1)n2C[C@@H]1CCO1 : 1.7
CC(C)(O)C#Cc1cc(C(=O)O)cc2c1nc(CN1CCN(c3cccc(OCc4ccc(C(N)=O)cc4F)n3)CC1)n2C[C@@H]1CCO1 : 31.9
CC(C)(O)C#Cc1cc(C(=O)O)cc2c1nc(CN1CCC(c3cccc(OCc4ccc(C#N)cc4F)n3)CC1)n2C[C@@H]1CCO1 : 0.81
COCCn1c(CC2CCN(c3cccc(OCc4ccc(C#N)cc4F)n3)CC2)nc2c(F)cc(C(=O)O)cc21 : 13.2

# next compound below
Exercise: Consider the compound Cn1cc(-c2cc3nc(CN4CCC(c5cccc(OCc6ccc(C#N)cc6F)n5)CC4)n(C[C@@H]4CCO4)c3cc2C(=O)O)cn1 . State its measured EC50.
Key: 13.3

###

target: GLP-1R (Homo sapiens); test: GLP-1R Activation - cAMP Assay 2 (cAMP increase in CHO cells stably expressing GLP-1R, pre-spotted agonists); assay type: cell-based; details: assay buffer or 100% Human Plasma (not given), 30 minutes at 37° C.
Field: EC50. Provide a value for each of the molecules that follow.
Give bare numbers, in nM.

Previously resolved entries follow.
COCCn1c(CN2CCC(c3cccc(OCc4ccc(C#N)cc4F)n3)CC2)nc2c(F)c(Nc3ccccc3)c(C(=O)O)cc21 : 15.1
COCCn1c(CN2CCN(c3cccc(OCc4ccc(C#N)cc4F)n3)CC2)nc2c(F)c(Nc3ccccc3)c(C(=O)O)cc21 : 1.9
Cn1ccc(-c2cc(C(=O)O)cc3c2nc(CN2CCN(c4cccc(OCc5ccc(C#N)cc5F)n4)CC2)n3C[C@@H]2CCO2)n1 : 0.3

# next molecule below
Exercise: Consider the molecule COCCn1c(CN2CCC(c3cccc(OCc4ccc(C#N)cc4F)n3)CC2)nc2c(C3CC3)cc(C(=O)O)cc21 . State its measured EC50.
Key: 47.8

These entries and their values trace back to patent US11851419B2.
